Origin of measurements: the supplement of paper PMC5412046

tested on: SB.msgc-1; test: area under the dose-response curve of % viability (trapezoidal, 11 doses) (% viability x log10 concentration); higher = less cytotoxic; details: SB.msgc-1 (sporadic gastric cancer)
Could you please report measured area under the dose-response curve for the items listed next?

Name the recorded area under the dose-response curve for CC(C)(CO)[C@@H](O)C(=O)NCCC(=O)O [Pantothenic acid] (top concentration 46.0829 µM) .
494

Report area under the dose-response curve for C[N+](C)([O-])CCNc1ccc(NCC[N+](C)(C)[O-])c2c1C(=O)c1c(O)ccc(O)c1C2=O [Banoxantrone] (top concentration 46.0829 µM) please.
492

Recorded area under the dose-response curve for Oc1c(Cl)cc(Cl)c2cccnc12 [Chloroxine] (top concentration 46.0829 µM) , please?
498

Quick check: area under the dose-response curve of COc1c(Cl)cc2c([nH]c3cnccc32)c1NC(=O)c1cccnc1C [MLN-120B] (top concentration 46.0829 µM) ?
513
